Reported unfolding enthalpy (calorimetric) values for the following variants.
B1: Lysozyme C, P61626 (parent)
chain: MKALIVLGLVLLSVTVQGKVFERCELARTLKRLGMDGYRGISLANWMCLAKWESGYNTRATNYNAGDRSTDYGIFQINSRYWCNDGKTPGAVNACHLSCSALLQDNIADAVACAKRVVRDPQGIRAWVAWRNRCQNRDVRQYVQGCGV

Variants of: B1
Settings: Homo sapiens; pH 2.7; 64.9 °C; Thermal; DSC; Gly-HCl 0.05 M; structure 1LZ1; whole UniProt chain shown
Metric: unfolding enthalpy (calorimetric)

{"columns": ["Variant name", "Metric", "Measured result"],
 "data": [
  ["V128Y", "unfolding enthalpy (calorimetric)", "108 kcal/mol"],
  ["V20S", "unfolding enthalpy (calorimetric)", "111 kcal/mol"],
  ["V20R", "unfolding enthalpy (calorimetric)", "106 kcal/mol"],
  ["V20N", "unfolding enthalpy (calorimetric)", "114 kcal/mol"],
  ["V20D", "unfolding enthalpy (calorimetric)", "111 kcal/mol"],
  ["V92D", "unfolding enthalpy (calorimetric)", "107 kcal/mol"],
  ["V92Y", "unfolding enthalpy (calorimetric)", "107 kcal/mol"],
  ["V128R", "unfolding enthalpy (calorimetric)", "101 kcal/mol"],
  ["V20Y", "unfolding enthalpy (calorimetric)", "106 kcal/mol"],
  ["V92R", "unfolding enthalpy (calorimetric)", "104 kcal/mol"],
  ["V92N", "unfolding enthalpy (calorimetric)", "115 kcal/mol"],
  ["V92S", "unfolding enthalpy (calorimetric)", "108 kcal/mol"]
]}
